Some molecules, each annotated with its measured pIC50.
# Experimental system: GSK3β (Homo sapiens, UniProt P49841)
# Sequence (P49841 whole entry, species assumed): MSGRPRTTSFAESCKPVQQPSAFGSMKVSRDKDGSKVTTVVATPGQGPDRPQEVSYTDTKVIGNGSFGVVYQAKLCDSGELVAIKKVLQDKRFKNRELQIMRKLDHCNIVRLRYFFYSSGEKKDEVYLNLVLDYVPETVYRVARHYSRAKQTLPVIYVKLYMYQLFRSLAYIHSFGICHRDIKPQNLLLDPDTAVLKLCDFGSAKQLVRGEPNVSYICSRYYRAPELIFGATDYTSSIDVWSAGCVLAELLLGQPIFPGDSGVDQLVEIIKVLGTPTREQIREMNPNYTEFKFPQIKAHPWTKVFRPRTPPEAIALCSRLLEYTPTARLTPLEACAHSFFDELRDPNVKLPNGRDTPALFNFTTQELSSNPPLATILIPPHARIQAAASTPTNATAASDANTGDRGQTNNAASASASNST
# Test details: GSK3β ATP depletion assay
# Type: biochemical
# Measurement parameters: read-out: GSK3b IC50
# Experimental: GSK3β ATP Depletion Assay The activity of GSK3β is measured using a luciferase-luciferin based ATP detection reagent to quantify ATP depletion resulting from kinase-catalyzed phosphoryl transfer to a peptide substrate. Compounds to be tested are dissolved in 100% DMSO and directly distributed into white 384-well plates at 0.5 μl per well. […] The stopped reaction is incubated for 10 minutes and the remaining ATP is detected via luminescence on the Victor2 (Perkin Elmer).
Schema: pIC50 number; meaning minus log10 of the concentration expressed in molar units.

Solved entries:
{"Molecule": "CC[C@H]1O[C@@H](c2ncncc2NC(=O)c2ccc(F)c(-c3c(F)cccc3F)n2)C[C@@H](O)[C@@H]1O", "Experimental system": "GSK3β (Homo sapiens, UniProt P49841)", "pIC50": 4.87}
{"Molecule": "O=C(Nc1cnccc1[C@H]1C[C@@H](O)[C@H](O)[C@@H](CF)O1)c1ccc(F)c(-c2c(F)cccc2F)n1", "Experimental system": "GSK3β (Homo sapiens, UniProt P49841)", "pIC50": 6.73}
{"Molecule": "CC[C@]1(O)[C@H](O)C[C@H](c2ccncc2NC(=O)c2nc(-c3c(F)cccc3F)ncc2N)O[C@@H]1C [Example 143]", "Experimental system": "GSK3β (Homo sapiens, UniProt P49841)", "pIC50": 6.99}

Now take the following molecule into account.
Q. So what does the record say about pIC50 for `O=C(Nc1cnccc1[C@@H]1C[C@H](O)CCO1)c1csc(-c2c(F)cccc2F)n1` ?
A. 6.64

###

# Experimental system: PIM2 (Homo sapiens, UniProt Q9P1W9)
# Sequence (Q9P1W9 whole entry): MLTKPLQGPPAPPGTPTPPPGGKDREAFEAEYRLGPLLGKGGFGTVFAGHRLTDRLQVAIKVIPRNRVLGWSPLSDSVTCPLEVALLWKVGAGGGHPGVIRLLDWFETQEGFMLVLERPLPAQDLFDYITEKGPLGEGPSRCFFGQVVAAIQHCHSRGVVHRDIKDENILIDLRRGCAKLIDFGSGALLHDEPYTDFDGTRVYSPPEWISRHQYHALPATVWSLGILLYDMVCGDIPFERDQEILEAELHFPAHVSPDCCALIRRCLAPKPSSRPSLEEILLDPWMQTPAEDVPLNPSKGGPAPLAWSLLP
# Test details: KinaseGlo Pim2 ATP depletion assay
# Format: biochemical
pIC50: −log10 of the molar value.
Could you label it True if measured pIC50 is 7 or higher, and False otherwise?

Some entries whose results are on file:
{"Compound": "O=C(Nc1cnccc1[C@H]1C[C@@H](O)[C@@]2(O)CCCC[C@H]2O1)c1ccc(F)c(-c2c(F)cccc2F)n1 [Example 174]", "Assigned label": "True"}
{"Compound": "Nc1cnc(-c2c(F)cccc2F)nc1C(=O)Nc1cnccc1[C@H]1C[C@@H](N)[C@@]2(O)CCC[C@H]2O1 [Example 213]", "Assigned label": "True"}
{"Compound": "CC[C@H]1O[C@@H](c2ccncc2NC(=O)c2nc(-c3c(F)cccc3F)sc2N)C[C@@H](O)[C@@H]1O [Example 40]", "Assigned label": "True"}
{"Compound": "C[C@H]1[C@H](O)C[C@H](c2ccncc2NC(=O)c2ccc(F)c(-c3c(F)cccc3F)n2)O[C@@H]1C (stereo in doubt) [Example 97]", "Assigned label": "False"}
{"Compound": "O=C1CC[C@H]2O[C@@H](c3ccncc3NC(=O)c3ccc(F)c(-c4c(F)cccc4F)n3)C[C@@H](O)[C@@H]2N1 [Example 196]", "Assigned label": "True"}
{"Compound": "C[C@H]1O[C@@H](c2ccncc2NC(=O)c2nc(-c3c(F)cccc3F)ncc2N)C[C@@H](O)[C@]1(C)O [Example 146]", "Assigned label": "True"}
{"Compound": "NC(=O)[C@H]1O[C@@H](c2ccncc2NC(=O)c2ccc(F)c(-c3c(F)cccc3F)n2)C[C@@H](O)[C@@H]1O [Example 141]", "Assigned label": "False"}
{"Compound": "O=C(Nc1cnccc1[C@@H]1C[C@H](O)[C@]2(O)CCCC[C@@H]2O1)c1ccnn(-c2ccccc2F)c1=O [Example 191]", "Assigned label": "False"}
{"Compound": "C[C@H]1O[C@@H](c2ccncc2NC(=O)c2nc(-c3ccccc3)cnc2N)[C@H](F)[C@@H](O)[C@]1(C)O [Example 58]", "Assigned label": "False"}
{"Compound": "O=C(Nc1cnccc1C1=C[C@@H](O)[C@H](O)[C@@H](CCl)O1)c1ccnc(-c2c(F)cccc2F)n1 [Example 28]", "Assigned label": "True"}

Now consider the entry below.
Q. Entry O=C(Nc1cnccc1[C@H]1OC[C@H](CO)O1)c1ccc(F)c(-c2c(F)cccc2F)n1 [Example 101] : is its pIC50 no less than 7?
A. False

###

# Experimental system: PIM2 (Homo sapiens, UniProt Q9P1W9)
# Test details: KinaseGlo Pim2 ATP depletion assay
# Format: biochemical
Lab note: compare IC50 with 50 nM, writing true (1) if less and false (0) if equal or more.

{"Compound": "O=C(Nc1cnccc1[C@@H]1C[C@H](O)CC2(CC2)O1)c1ccc(F)c(-c2c(F)cccc2F)n1 [Example 60]", "Experimental system": "PIM2 (Homo sapiens, UniProt Q9P1W9)", "Assigned label": "true (1)"}
{"Compound": "C[C@H]1O[C@@H](c2ccncc2NC(=O)c2ccc(F)c(-c3ccccc3F)n2)C[C@@H](O)[C@]1(C)O [Example 93]", "Experimental system": "PIM2 (Homo sapiens, UniProt Q9P1W9)", "Assigned label": "false (0)"}
{"Compound": "O=C(Nc1cnccc1[C@@]1(C(F)(F)F)C[C@@H](O)CCO1)c1ccc(F)c(-c2c(F)cccc2F)n1 [Example 53]", "Experimental system": "PIM2 (Homo sapiens, UniProt Q9P1W9)", "Assigned label": "false (0)"}

Q. Quick check: IC50 of CC1C(c2ccncc2NC(=O)c2ccc(F)c(-c3c(F)cccc3F)n2)OC(C)[C@H](O)C1O (stereo in doubt) [Example 65] under 50 nM?
A. true (1)

Q. Please check: IC50 for O=C(Nc1cnccc1[C@]1(C(F)(F)F)CCCCO1)c1ccc(F)c(-c2c(F)cccc2F)n1 [Example 52] , strictly under 50 nM or not?
A. false (0)

Q. Threshold test, IC50 < 50 nM: O=C(Nc1cnccc1[C@H]1C[C@@H](O)CCO1)c1ccc(F)c(-c2c(F)cccc2F)n1 [Example 129]
A. false (0)

Q. Lab note: confirm whether the reported IC50 for this compound is below 50 nM, equality not counting. compound: C=C[C@H]1OC(c2ccncc2NC(=O)c2nc(-c3c(F)cccc3F)ncc2N)=C[C@@H](O)[C@@H]1O [Example 144]
A. true (1)

Q. IC50 strictly < 50 nM for this compound? N[C@@H]1C[C@H](c2ccncc2NC(=O)c2ccc(F)c(-c3c(F)cccc3F)n2)O[C@@H]2CCC[C@]12O [Example 210]
A. true (1)

Q. Would you kindly verify if IC50 of O=C(Nc1cnccc1[C@H]1C[C@@H](O)[C@H](O)[C@@H](CF)O1)c1ccc(F)c(-c2c(F)cccc2F)n1 [Example 282] is strictly less than 50 nM?
A. true (1)

###

# Experimental system: PIM2 (Homo sapiens)
# Test details: KinaseGlo Pim2 ATP depletion assay
# Format: biochemical
Listed here: items and their measured IC50.
Give the value in nM but do not write nM after it.

Consider the worked cases shown below.
{"Compound": "CC[C@H]1O[C@@H](c2ccncc2NC(=O)c2csc(-c3c(F)cccc3F)n2)C[C@@H](O)[C@@H]1O", "Experimental system": "PIM2 (Homo sapiens)", "Quantity measured": "IC50", "Uom": "nM", "Val": 65}
{"Compound": "CC[C@H]1O[C@@H](c2ccncc2NC(=O)c2ccnc(-c3c(F)cccc3F)n2)C[C@@H](O)[C@@H]1O", "Experimental system": "PIM2 (Homo sapiens)", "Quantity measured": "IC50", "Uom": "nM", "Val": 170}
{"Compound": "C[C@H]1O[C@@H](c2ccncc2NC(=O)c2csc(-c3c(F)cccc3F)n2)C[C@@H](O)[C@]1(C)O (stereo in doubt)", "Experimental system": "PIM2 (Homo sapiens)", "Quantity measured": "IC50", "Uom": "nM", "Val": 3420}

Attention now shifts to the item below.
Q. Look up IC50: `O=C(Nc1cnccc1[C@H]1C[C@@H](O)[C@H](O)[C@@H](C2CC2)O1)c1ccc(F)c(-c2c(F)cccc2F)n1`
A. 3.1

###

# Experimental system: PIM3 (Homo sapiens)
# Test details: KinaseGlo Pim3 ATP depletion assay
# Format: biochemical
Known IC50 of a selection of molecules
Give the quantity in nM, number only.

In the examples that follow, each entry is paired with its recorded IC50.
{"Molecule": "C[C@H]1C[C@@H](N)C[C@@H](c2ccncc2NC(=O)c2csc(-c3c(F)cccc3F)n2)O1", "Uom": "nM", "IC50": 7}
{"Molecule": "C[C@@H]1O[C@H](c2ccncc2NC(=O)c2ccc(F)c(-c3c(F)cccc3F)n2)C[C@H](O)[C@H]1O", "Uom": "nM", "IC50": 3}
{"Molecule": "CCC[C@H]1O[C@@H](c2ccncc2NC(=O)c2nc(-c3c(F)cccc3F)ncc2N)C[C@@H](O)[C@@H]1O", "Uom": "nM", "IC50": 13.2}

Q. For the record `C=C[C@H]1OC(c2ccncc2NC(=O)c2ccc(F)c(-c3c(F)cccc3F)n2)=C[C@@H](O)[C@@H]1O` , what value of IC50 is listed for PIM3 (Homo sapiens)?
A. 1

Q. Please provide the recorded IC50 for `Nc1cc(F)c(-c2ccccc2F)nc1C(=O)Nc1cnccc1[C@H]1C[C@@H](O)[C@H](O)[C@@H](CCl)O1` , tested on PIM3 (Homo sapiens).
A. 2

Q. What is its IC50 for PIM3 (Homo sapiens)? Entry: `C[C@@H]1O[C@H](c2ccncc2NC(=O)c2ccc(F)c(-c3c(F)cccc3F)n2)C[C@@H](O)[C@H]1O`
A. 4

Q. Query for PIM3 (Homo sapiens): what IC50 does the record show for `O=C(Nc1cnccc1[C@H]1C[C@@H](O)CCO1)c1ccc(F)c(-c2c(F)cccc2F)n1` ?
A. 13

Q. Tell me reported IC50 for CC[C@H]1O[C@@H](c2ccncc2NC(=O)c2nc(-c3nccs3)ccc2N)C[C@@H](O)[C@@H]1O [Example 145] , tested with PIM3 (Homo sapiens).
A. 19.4

Q. Form field - read-out: IC50; system: PIM3 (Homo sapiens); submitted item: `CC1(C)O[C@@H](c2ccncc2NC(=O)c2csc(-c3c(F)cccc3F)n2)C[C@H](O)[C@@H]1O`
A. 5

Q. Recorded IC50 for `CC[C@]1(O)[C@H](O)C[C@H](c2ccncc2NC(=O)c2nc(-c3ncccc3F)ccc2N)O[C@@H]1C` with PIM3 (Homo sapiens), please?
A. 5.3

Q. Given the entry `C[C@@H]1C[C@H](N)C[C@H](c2ccncc2NC(=O)c2csc(-c3c(F)cccc3F)n2)O1` , what IC50 was observed with PIM3 (Homo sapiens)?
A. 44

Q. Enter reported IC50 observed with PIM3 (Homo sapiens) for `O=C(Nc1cnccc1[C@H]1C[C@@H](O)[C@H](O)[C@@H](CO)O1)c1ccc(F)c(-c2c(F)cccc2F)n1`
A. 32

Q. Hi! What's the reported IC50 for `CC[C@@]1(O)[C@H](C)O[C@H](c2ccncc2NC(=O)c2ccc(F)c(-c3c(F)cccc3F)n2)C[C@@H]1O` on PIM3 (Homo sapiens)?
A. 200

Q. Notebook: pull reported IC50 for PIM3 (Homo sapiens), entry `CC[C@H]1O[C@@H](c2ccncc2NC(=O)c2ccc(F)c(-c3c(F)cccc3F)n2)C[C@@H](O)[C@H]1C#N`
A. 33.9

Data provenance: patent US20130109682A1
